experiment_summary: blocking HSF1-driven luciferase expression – cell-based, NIH3T3, luminescence, primary screen (AID 2098);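 note: luciferase reports HSF-1 transcriptional activity via heat shock element; 0% = median of DMSO wells and -100% = zero luminescence signal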
assay_context: NIH3T3-HGL HSE-luciferase, MG132-induced, luminescence 8 h; screened at 7.5 µM (by protocol)
Out of some 300,000 compounds screened, about 2,300 (0.77%) were called active.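 Rule for the calls: active = more than half of replicate wells show activity change below -50%, luminescence cut by over half; inconclusive = some wells, but at most half, below -50%; inactive = no replicate well below -50%.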 Only a selection was taken, and actives are over-represented in it overall.
Outcomes: label 1 for active, label 0 for inactive

# compound, qualitative_label
data = [
    ("Cc1ccc(-n2c(=O)cc(N3CCN(Cc4ccccc4)CC3)[nH]c2=O)cc1", "label 1"),
    ("CN1CCN(c2cc(=O)n(-c3ccc(Cl)cc3)c(=O)[nH]2)CC1", "label 0"),
    ("COc1ccc(-n2nnnc2-c2nc3ccccc3s2)cc1", "label 1"),
    ("COC(=O)[C@@]12CCCN1[C@H](c1ccc(-c3ccc(F)cc3)c(OC)c1)[C@H]1C(=O)N(C)C(=O)[C@H]12", "label 0"),
    ("COc1ccc(C2=NN(c3nc4ccccc4s3)C(=O)C2)cc1", "label 0"),
    ("COc1cc(C2C(C(=O)c3cccs3)=C(O)C(=O)N2CCN2CCOCC2)ccc1OCCC(C)C (stereo not given)", "label 0"),
    ("CCc1c(C)nc(N2CCN(Cc3ccccc3)CC2)[nH]c1=O", "label 0"),
    ("O=C(NCc1ccccc1)c1onc(CSc2ccncc2)c1C(=O)NCc1ccccc1", "label 0"),
    ("COc1ccc(CNC(=O)COC(=O)CCS(=O)(=O)c2ccc(C)cc2)cc1OC", "label 0"),
    ("CCOc1cccc(-n2nnnc2-c2ccc(OC)cc2)c1", "label 0"),
]

====

experiment_summary: blocking HSF1-driven luciferase expression – cell-based, NIH3T3, luminescence, primary screen (AID 2098)
assay_context: NIH3T3-HGL HSE-luciferase, MG132-induced, luminescence 8 h; hits give low values; screened at 7.5 µM (by protocol)
Screen size: about 300,000 compounds; about 2,300 (0.77%) were called active. This is one part of a sample in which actives are shown more often than they occur.
quantity_kind: activity change, negative = inhibition (%)

# compound, quantity_kind, endpoint_result
records = [
    ("CC1COc2ccccc2N1S(=O)(=O)c1ccccc1 (stereo unspecified)", "activity change, negative = inhibition", -6.19),
    ("CC1COc2ccccc2N1C(=O)c1ccc(F)cc1 (stereo unspecified)", "activity change, negative = inhibition", -77.4),
    ("O=C(COc1ccccc1)Nc1ccc(C(=O)N2CCCC2)cc1", "activity change, negative = inhibition", -3.01),
    ("COc1ccc(S(=O)(=O)N2CCCC2CNC(=O)C(=O)NC2CC2)cc1 (stereo unspecified)", "activity change, negative = inhibition", -3.82),
    ("CC1COc2ccccc2N1C(=O)c1cccnc1Cl (stereo unspecified)", "activity change, negative = inhibition", -2.12),
    ("COc1cc2c(cc1OC)C(Cc1cc(OC)c(OC)cc1[N+](=O)[O-])=NCC2", "activity change, negative = inhibition", -5.53),
    ("COc1ccc(CN2[C@@H](CC(=O)O)c3cc(F)ccc3S2(=O)=O)cc1", "activity change, negative = inhibition", -5.27),
    ("COc1ccccc1C(=O)NC(CCSC)C(=O)N1CCN(C/C=C/c2ccccc2)CC1 (stereo unspecified)", "activity change, negative = inhibition", 6.22),
    ("COc1cccc(CNC(=O)C(=O)NCCC2CCCCN2S(=O)(=O)c2ccc(C)cc2)c1 (stereo unspecified)", "activity change, negative = inhibition", -3.75),
    ("O=C(CCCO)N/N=C/c1cc(Br)ccc1O", "activity change, negative = inhibition", -13.7),
    ("O=C(CCCN=C1NS(=O)(=O)c2ccccc21)OCC(=O)c1ccc(F)c(F)c1", "activity change, negative = inhibition", -2.57),
]

====

experiment_summary: blocking HSF1-driven luciferase expression – cell-based, NIH3T3, luminescence, primary screen (AID 2098);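 note: luciferase reports HSF-1 transcriptional activity via heat shock element; 0% = median of DMSO wells and -100% = zero luminescence signal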
assay_context: NIH3T3-HGL HSE-luciferase, MG132-induced, luminescence 8 h; screened at 7.5 µM (by protocol)
Among all 300,000 compounds or so, about 2,300 (0.77%) were called active.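 Rule for the calls: active = more than half of replicate wells show activity change below -50%, luminescence cut by over half; inconclusive = some wells, but at most half, below -50%; inactive = no replicate well below -50%.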 This excerpt belongs to a sample that is enriched for actives.
Outcomes: T for active, F for inactive

# smiles_code, qualitative_label
records = [
    ("O=C(COc1ccccc1)Nc1cc2c3c(c1)CC(=O)N3CCC2", "F"),
    ("CC(C)(C)Oc1ccccc1Nc1nc(NCCO)nc(N2CCCC2)n1", "F"),
    ("NS(=O)(=O)c1ccc(CCNC(=O)CN2C(=O)c3ccccc3S2(=O)=O)cc1", "F"),
    ("CCOc1ccc2nc(NC(=O)c3cc([N+](=O)[O-])ccc3N3CCOCC3)sc2c1", "T"),
    ("COc1ccc(S(=O)(=O)N2CCCCC2)cc1NC(=O)c1cc([N+](=O)[O-])ccc1N1CCOCC1", "F"),
    ("COc1ccc(C)cc1S(=O)(=O)Nc1cc2c3c(c1)CCC(=O)N3CCC2", "T"),
    ("C/C(=N\\Nc1nncc2ccccc12)c1ccc(Cl)c([N+](=O)[O-])c1", "T"),
    ("O=C(Nc1cccc2c1CCCC2)c1ccc(F)cc1", "F"),
    ("O=C(NC1CCCCC1)c1cc([N+](=O)[O-])ccc1N1CCOCC1", "F"),
    ("O=C(c1ccc(NS(=O)(=O)c2ccc3[nH]c(=O)[nH]c3c2)cc1)N1CCCCC1", "F"),
    ("O=C(CCC1CCCCC1)Nc1cc(C(F)(F)F)ccc1N1CCOCC1", "F"),
    ("COC(=O)c1ccc(COC(=O)C2CCN(S(=O)(=O)c3c(Cl)cccc3Cl)CC2)o1", "F"),
    ("O=C(Nc1cccc2ncccc12)c1ccc(-c2ccc(Cl)cc2Cl)o1", "F"),
    ("Cc1nc2ccccc2c(=O)n1NC(=O)c1ccc(Cl)c([N+](=O)[O-])c1", "F"),
    ("O=C(COC(=O)CCOc1ccccc1)Nc1cc(S(=O)(=O)N2CCCCC2)ccc1Cl", "F"),
    ("CCN1CCN(C(=O)/C=C\\C(=O)O)CC1", "F"),
    ("O=C(Nc1cccnc1)c1ccc(Cl)c([N+](=O)[O-])c1", "F"),
    ("CCOc1cc(/C=N/NC(=O)c2cccc(S(=O)(=O)N3CCOCC3)c2)ccc1OCC(=O)N(C)C", "T"),
    ("O=C(N/N=C/c1ccc([N+](=O)[O-])o1)c1cccc(S(=O)(=O)N2CCOCC2)c1", "F"),
]

====

experiment_summary: blocking HSF1-driven luciferase expression – cell-based, NIH3T3, luminescence, primary screen (AID 2098);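 note: luciferase reports HSF-1 transcriptional activity via heat shock element; 0% = median of DMSO wells and -100% = zero luminescence signal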
assay_context: NIH3T3-HGL HSE-luciferase, MG132-induced, luminescence 8 h; hits give low values; screened at 7.5 µM (by protocol)
In all, about 300,000 compounds went through this assay and about 2,300 (0.77%) were called active. The sample holds actives, similar compounds and a random draw of the others, so the mix is not that of the screen.
Parameter: activity change, negative = inhibition. Scope: all listed entries.

# compound, scale_unit, activity change, negative = inhibition
measured = [
    ("O=c1c2ccccc2nc2n1C1(CCCCC1)Cc1ccccc1-2", "%", 15.3),
    ("Cc1ccc(NC(=O)CN(C)C(=O)c2ccc(Br)o2)cc1", "%", 0.545),
    ("COc1cccc(N2CC(NS(=O)(=O)c3ccc(Cl)cc3)CC2=O)c1 (stereo unspecified)", "%", 8.69),
    ("Cc1ccc(CSCC(=O)N(C)CC(=O)Nc2cccc(F)c2)cc1", "%", -0.103),
    ("O=C(Nc1ncccc1O)c1ccc(C(=O)c2ccccc2)cc1", "%", -2.64),
    ("Cc1ccc(C)c(N2CCN(C(=O)CCCCn3c(=O)[nH]c4ccccc4c3=O)CC2)c1", "%", 1.8),
    ("S=c1[nH]c(-c2cccs2)cn1-c1ccccc1", "%", 2.33),
    ("CN(c1ccc2nc3ccccc3c(=O)n2n1)C1CCCCC1", "%", -86.8),
    ("O=C(CCCCCn1c(=S)[nH]c2cc3c(cc2c1=O)OCO3)N1CCN(c2ccc(F)cc2)CC1", "%", 0.967),
    ("Cc1ccc(CSCC(=O)N(C)CC(=O)Nc2ccc(C)cc2)cc1", "%", -72.3),
    ("COc1ccc(-c2cn(-c3ccc(OC)cc3)c(=S)[nH]2)cc1", "%", 9.62),
]

====

experiment_summary: blocking HSF1-driven luciferase expression – cell-based, NIH3T3, luminescence, primary screen (AID 2098);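 note: luciferase reports HSF-1 transcriptional activity via heat shock element; 0% = median of DMSO wells and -100% = zero luminescence signal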
assay_context: NIH3T3-HGL HSE-luciferase, MG132-induced, luminescence 8 h; hits give low values; screened at 7.5 µM (by protocol)
In all, about 300,000 compounds went through this assay and about 2,300 (0.77%) were called active. The sample as a whole holds a higher share of actives than the screen did.

# molecule, activity change, negative = inhibition
data = [
    ("O=S(=O)(/C=C/c1ccccc1)N1CCNCC1", "0.181% (inactive)"),
    ("COc1ccc(NC(=O)CN(C)C(=O)c2ccc(COc3ccccc3)o2)cc1", "3.16% (inactive)"),
    ("O=C1CN(C(=O)COC(=O)c2cnc(Cl)c(Cl)c2)c2ccccc2N1", "6.76% (inactive)"),
    ("COC(=O)CCCC1=CC2=C(c3ccccc3)C(=O)C(C)(OC(=O)C3CCCC3)C(=O)C2=CN1c1ccc(OC)cc1 (stereo not drawn)", "-88.7% (active)"),
    ("Cc1cccc(C(=O)Nc2ccccc2N2CCN(c3ccc(F)cc3)CC2)c1", "-1.05% (inactive)"),
    ("O=C(c1cc(-c2ccco2)nc2ccccc12)N(Cc1nnc(-c2ccc(Cl)cc2)o1)C1CC1", "8.92% (inactive)"),
    ("Nc1ccc(C(=O)N2CCN(S(=O)(=O)c3ccc(Cl)cc3)CC2)cc1[N+](=O)[O-]", "3.46% (inactive)"),
    ("O=C(OCC1OC(Oc2ccc(O)cc2)C(O)C(O)C1O)c1ccccc1 (stereo not drawn)", "-1.79% (inactive)"),
    ("Cc1ccc(S(=O)(=O)N2CCOCC2)cc1C(=O)Nc1ccccc1N1CCCC1", "3.38% (inactive)"),
    ("CCOC(=O)N1CCN(C(=S)Nc2ccc(C)cc2C)CC1", "-68.8% (active)"),
    ("Cc1cccc(C2=N/C(=C/c3cccs3)C(=O)O2)c1", "-10.1% (inactive)"),
    ("CCOc1ccc(NC(=O)CN(C)C(=O)COc2cccc(CC)c2)cc1OCC", "3.71% (inactive)"),
    ("CCCCN1C(N)=NC[C@@H]1CC1CCCCC1", "-7.88% (inactive)"),
    ("CC(=O)Nc1ccc(NC(=O)C(C)OC(=O)C2CC(=O)N(CCc3ccccc3)C2)cc1 (stereo not drawn)", "-2.7% (inactive)"),
    ("O=C1CC2(CCCC2)Oc2ccc(Cl)cc21", "-9.81% (inactive)"),
    ("Cc1ccc(S(=O)(=O)N(C)c2ccc(OCC(=O)OCc3ccc(C#N)cc3)cc2)cc1", "-4.36% (inactive)"),
    ("CCOc1ccc(NCCC(=O)c2ccc3c(c2)OCO3)cc1", "-1.61% (inactive)"),
    ("COc1ccccc1C(c1nnnn1CC1CCCO1)N1CCN(c2ccccc2)CC1 (stereo not drawn)", "-0.551% (inactive)"),
    ("CC(C)N(Cc1nnc(-c2ccc(Cl)cc2)o1)C(=O)C1=COCCO1", "-0.126% (inactive)"),
    ("Cc1cc(Cl)ccc1NC(=S)N1CCC(C(N)=O)(N2CCCCC2)CC1", "1.76% (inactive)"),
    ("c1ccc(-c2c[nH]c(-c3ccccc3)c2)cc1", "-83.8% (inactive)"),
    ("CSc1ccc(S(=O)(=O)NCC(=O)OCC(=O)NC2(C#N)CCCCC2)cc1[N+](=O)[O-]", "4.69% (inactive)"),
    ("Cc1ccc(S(=O)(=O)NCCC(=O)OCC(=O)N(C)c2ccccc2)cc1", "7.6% (inactive)"),
    ("CCOc1ccc(C(=O)Nc2cc(Cl)ccc2-n2cncn2)cc1OC", "-3.95% (inactive)"),
    ("COCCN1C=C2C(=O)C(C)(OC(=O)C3CCCC3)C(=O)C=C2C=C1c1ccsc1 (stereo not drawn)", "0.381% (inactive)"),
    ("CN(CC(=O)NCc1cccnc1)S(=O)(=O)c1cc(Cl)ccc1Cl", "1.42% (inactive)"),
    ("O=C(Nc1cccc(F)c1)c1cc(-c2ccco2)nc2ccccc12", "-58.6% (active)"),
    ("C=CCN1C=C2C(=O)C(C)(OC(=O)CCc3ccccc3)C(=O)C=C2C=C1c1ccc(C#N)cc1 (stereo not drawn)", "-1.82% (inactive)"),
    ("Cc1ccc(S(=O)(=O)N2CCN(C(=O)c3ccc(-n4cncn4)c([N+](=O)[O-])c3)CC2)cc1", "-4.92% (inactive)"),
    ("COc1ccccc1OCCCC(=O)Nc1ccc2c(c1)OCCO2", "1.02% (inactive)"),
    ("Cc1cccc(N2CCN(C(c3ccc(N(C)C)cc3)c3nnnn3C(C)(C)C)CC2)c1C (stereo not drawn)", "-2.19% (inactive)"),
    ("COc1ccc(C)cc1NC(=O)CSc1nnc2ccc(-c3ccccn3)nn12", "-4.51% (inactive)"),
    ("COc1cc(OC)c(C(=O)OCC(=O)N2CC(=O)Nc3ccccc32)cc1OC", "11.6% (inactive)"),
    ("CSC1=N/C(=C\\C=C\\c2cccs2)C(=O)S1", "-67.1% (active)"),
    ("Cc1ccc(C)c(OCCC(=O)OCC(=O)NC(=O)NCc2ccccc2)c1", "-6.76% (inactive)"),
    ("O=S(=O)(Nc1ccc(O)c2ccccc12)c1ccc(OC(F)(F)F)cc1", "-59.7% (active)"),
    ("Brc1ccc(C2=CC(c3ccco3)n3ncnc3N2)cc1 (stereo not drawn)", "-56.9% (active)"),
    ("CCn1ccnc1CN(C)C(=O)c1cc(COc2ccc(-n3cncn3)cc2)on1", "-9.56% (inactive)"),
    ("COC(=O)c1c(-c2ccsc2)oc2ccc(-c3cc(OC)c(OC)c(OC)c3)cc12", "0.511% (inactive)"),
    ("O=C(COC(=O)c1ccccc1SCC(=O)N1CCCC1)Nc1ccccc1OC(F)F", "7.03% (inactive)"),
    ("Cc1nn(C)c(C)c1NS(=O)(=O)c1ccc(OC(F)(F)F)cc1", "-8.93% (inactive)"),
    ("Cn1c(=N)n(CC(O)c2ccccc2)c2ccccc21 (stereo not drawn)", "-64.8% (active)"),
    ("COC(=O)CCCC1=CC2=CC(=O)C(C)(OC(=O)c3cccs3)C(=O)C2=CN1CC1CC1 (stereo not drawn)", "-2.87% (inactive)"),
]
